details: in acetonitrile, 283.15 K
MEASUREMENT_LABEL: solubility (mole fraction)
The answer should be written as a number, with no unit following it.

solubility (mole fraction) reported for this compound CNC(=O)c1cc(Oc2ccc(NC(=O)Nc3ccc(Cl)c(C(F)(F)F)c3)cc2)ccn1 : 0.000239

###

details: in toluene, 278.15 K
MEASUREMENT_LABEL: solubility (mole fraction)

solubility (mole fraction) reported for this compound CNC(=O)c1cc(Oc2ccc(NC(=O)Nc3ccc(Cl)c(C(F)(F)F)c3)cc2)ccn1 : 0.00218

###

conditions: in isopropanol, 293.15 K
MEASUREMENT_LABEL: solubility (mole fraction)
The answer should be written as a number, with no unit following it.

solubility (mole fraction) reported for this compound CNC(=O)c1cc(Oc2ccc(NC(=O)Nc3ccc(Cl)c(C(F)(F)F)c3)cc2)ccn1 : 0.000866
